B1: TPR 5TU (parent)
chain: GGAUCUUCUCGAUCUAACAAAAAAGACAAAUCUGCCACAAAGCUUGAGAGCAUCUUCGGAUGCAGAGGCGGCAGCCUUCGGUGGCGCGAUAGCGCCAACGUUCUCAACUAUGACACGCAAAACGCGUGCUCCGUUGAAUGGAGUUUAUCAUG

- Variants of: B1
- assay_summary: polymerase ribozyme fitness, log enrichment relative to wild type (log ratio); higher = more active; in vitro selection for triplet polymerase activity
Fewer inactive variants are shown than the library holds.
Would you please tag the item condition met when its polymerase ribozyme fitness (log ratio) is -2 or above, and condition not met when it is below?

variant_notation: C63A A64C
classification: condition met

variant_notation: C27U A40U G58C G59U G92U
classification: condition not met

variant_notation: G50A C85U C96U C105U G141A
classification: condition met

variant_notation: C36A G48U C54G C57A C72A A91C
classification: condition not met

variant_notation: A3G C5G U15C G84U C108U A121U
classification: condition not met

variant_notation: G50C U104G
classification: condition not met

variant_notation: G70U U139G
classification: condition not met

variant_notation: C36U C54A C95G C108U U109C C116U
classification: condition not met

variant_notation: A22G A29U G50A U56G C87U C118U
classification: condition not met

variant_notation: U44C G94C U146A
classification: condition not met

variant_notation: C5G A20G C51U A106G
classification: condition met

variant_notation: U56A C72G
classification: condition not met

variant_notation: C5G G48C G62C A97U G141U
classification: condition not met

variant_notation: A23U A26U C27U A41U C93U C95A
classification: condition not met

variant_notation: G112U G141A U148G
classification: condition not met

variant_notation: G83A A142G U148A
classification: condition not met

variant_notation: C93A A120U
classification: condition not met

variant_notation: A16G A20G A120C
classification: condition met

variant_notation: C14U U144G
classification: condition met

variant_notation: A30C C96A U135A A137U
classification: condition not met

variant_notation: A37G A66U C96A C103U
classification: condition not met

variant_notation: A73U C96U C108G G141A U146G
classification: condition not met
